tested on: TGBC1TKB (Biliary Tract Carcinoma); assay: Bliss excess, mean over the matrix (fraction); higher = more synergy;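 note: after 72 h of two-drug dosing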
Recorded Endpoint: Bliss excess
Reply briefly: the number, and no unit.

# Bliss excess of CCc1c2c(nc3ccc(O)cc13)-c1cc3c(c(=O)n1C2)COC(=O)[C@]3(O)CC [SN-38] + CN(C)CCCOc1ccc(-c2ccc3ncc4c(c3c2)n(C2CCOCC2)c(=O)n4C)cn1 [AZD0156] (first compound max 0.3 µM, 7x7, partner max 1 µM) = -0.006

# Bliss excess of CC1(C)CCC(CN2CCN(c3ccc(C(=O)NS(=O)(=O)c4ccc(NCC5CCOCC5)c([N+](=O)[O-])c4)c(Oc4cnc5[nH]ccc5c4)c3)CC2)=C(c2ccc(Cl)cc2)C1 [Venetoclax] + CN(C)CCCOc1ccc(-c2ccc3ncc4c(c3c2)n(C2CCOCC2)c(=O)n4C)cn1 [AZD0156] (first compound max 1 µM, 7x7, partner max 1 µM) = -0.0186

# Bliss excess of CS(=O)(=O)CCNCc1ccc(-c2ccc3ncnc(Nc4ccc(OCc5cccc(F)c5)c(Cl)c4)c3c2)o1 [Lapatinib] + Cn1cnc2c(F)c(Nc3ccc(Br)cc3Cl)c(C(=O)NOCCO)cc21 [Selumetinib] (first compound max 10 µM, 7x7, partner max 10 µM) = 0.034

---

tested on: KYAE-1 (Esophageal Adenocarcinoma); assay: combination Emax (second highest fraction inhibited in the dose matrix, 72 h); higher = more inhibition; extreme values may be limits of the assay
Please respond with reported combination Emax for every item in the list.
Reply briefly: the number, and no unit.

Value sought: combination Emax, system KYAE-1 (Esophageal Adenocarcinoma), item Cn1cnc2c(F)c(Nc3ccc(Br)cc3Cl)c(C(=O)NOCCO)cc21 [Selumetinib] + CC(C)n1c(=O)n(C)c2cnc3cc(F)c(-c4ccc(OCCCN5CCCCC5)nc4)cc3c21 [AZD1390] (first compound max 10 µM, 7x7, partner max 0.3 µM) . Result: 0.144

Value sought: combination Emax, system KYAE-1 (Esophageal Adenocarcinoma), item CC1(C)CCC(CN2CCN(c3ccc(C(=O)NS(=O)(=O)c4ccc(NCC5CCOCC5)c([N+](=O)[O-])c4)c(Oc4cnc5[nH]ccc5c4)c3)CC2)=C(c2ccc(Cl)cc2)C1 [Venetoclax] + CS(=O)(=O)CCNCc1ccc(-c2ccc3ncnc(Nc4ccc(OCc5cccc(F)c5)c(Cl)c4)c3c2)o1 [Lapatinib] (first compound max 1 µM, 7x7, partner max 10 µM) . Result: 0.758

---

Please respond with reported combination Emax for every item in the list.
system: WSU-NHL (B-Cell Non-Hodgkin's Lymphoma); assay: combination Emax (second highest fraction inhibited in the dose matrix, 72 h); higher = more inhibition; extreme values may be limits of the assay

# combination Emax of CC1(C)CCC(CN2CCN(c3ccc(C(=O)NS(=O)(=O)c4ccc(NCC5CCOCC5)c([N+](=O)[O-])c4)c(Oc4cnc5[nH]ccc5c4)c3)CC2)=C(c2ccc(Cl)cc2)C1 [Venetoclax] + C1CN(CCC1(C(=O)N[C@@H](CCO)C2=CC=C(C=C2)Cl)N)C3=NC=NC4=C3C=CN4 [Capivasertib] (first compound max 1 µM, 7x7, partner max 3 µM) = 0.977

# combination Emax of Cc1cc2ncnn2cc1Nc1ncc2c(n1)n(C1CCOCC1)c(=O)n2C [AZD7648] + CN(C)CCCOc1ccc(-c2ccc3ncc4c(c3c2)n(C2CCOCC2)c(=O)n4C)cn1 [AZD0156] (first compound max 10 µM, 7x7, partner max 1 µM) = 0.498

# combination Emax of Cn1cnc2c(F)c(Nc3ccc(Br)cc3Cl)c(C(=O)NOCCO)cc21 [Selumetinib] + CC(C)n1c(=O)n(C)c2cnc3cc(F)c(-c4ccc(OCCCN5CCCCC5)nc4)cc3c21 [AZD1390] (first compound max 10 µM, 7x7, partner max 0.3 µM) = 0.205

# combination Emax of CN(CCO)CC[C@H](CSc1ccccc1)Nc1ccc(S(=O)(=O)NC(=O)c2ccc(N3CCC([C@@H](O)c4ccccc4-c4ccc(Cl)cc4)CC3)cc2)cc1S(=O)(=O)C(F)(F)F [AZD4320] + C[C@@H]1COCCN1C2=NC(=NC(=C2)C3(CC3)[S@](=N)(=O)C)C4=C5C=CNC5=NC=C4 [AZD6738] (first compound max 1 µM, 7x7, partner max 10 µM) = 0.968

# combination Emax of O=C(c1cc(Cc2n[nH]c(=O)c3ccccc23)ccc1F)N1CCN(C(=O)C2CC2)CC1 [Olaparib] + CN(CC[C@H](CSC1=CC=CC=C1)NC2=C(C=C(C=C2)S(=O)(=O)NC(=O)C3=CC=C(C=C3)N4CCC(CC4)[C@H](C5=CC=CC=C5C6=CC=C(C=C6)Cl)O)S(=O)(=O)C(F)(F)F)CCO [AZD4320] (first compound max 10 µM, 7x7, partner max 1 µM) = 0.674

# combination Emax of N#Cc1cnc(Nc2cc(NC[C@H]3CNCCO3)c(C(F)(F)F)cn2)cn1 [SRA737] + C=CCn1c(=O)c2cnc(Nc3ccc(N4CCN(C)CC4)cc3)nc2n1-c1cccc(C(C)(C)O)n1 [AZD1775] (first compound max 10 µM, partner max 1 µM) = 0.989

# combination Emax of COc1nnc2ccc(N3CCC(c4ccc(OCCN5CCN(C)C(=O)[C@H]5C)cc4)CC3)nn12 [AZD5153] + C=CCn1c(=O)c2cnc(Nc3ccc(N4CCN(C)CC4)cc3)nc2n1-c1cccc(C(C)(C)O)n1 [AZD1775] (first compound max 1 µM, partner max 1 µM) = 0.952

# combination Emax of C[C@@H](Nc1cc(F)cc(F)c1)c1cc(C(=O)N(C)C)cc2c(=O)cc(N3CCOCC3)oc12 [AZD8186] + CC(=O)c1c(C)c2cnc(Nc3ccc(N4CCNCC4)cn3)nc2n(C2CCCC2)c1=O [Palbociclib] (first compound max 10 µM, 7x7, partner max 10 µM) = 0.967
